src = the supplement of paper PMC8371130

Recorded relative cell viability values for a group of compounds are listed next.
Test system: HL-1
METHOD SUMMARY: relative cell viability (CellTiter-Glo) vs DMSO control (% of DMSO control); higher = more viable cells
EXPERIMENTAL SETUP: oxygen condition: hypoxia 48 h (1% O2) + reoxygenation 24 h; 200 nM
Counter-ions that a name gives are not always drawn.
Field format: numeric only.

Recorded results for 3 compounds are shown here.
* COC(=O)[C@@H]1CC2=CC(=O)CC[C@]2(C)[C@@]23O[C@@H]2C[C@@]2(C)[C@@H](CC[C@@]24CCC(=O)O4)[C@H]13 | 103
* CC(C)CC(N)=O [Isovaleramide] | 91.3
* Cc1cccc(CN2CCN(C(c3ccccc3)c3ccc(Cl)cc3)CC2)c1 (stereo not drawn) [Meclizine 2HCl] | 108

Task: Reported relative cell viability for CCCN[C@H]1CCc2nc(N)sc2C1 [Pramipexole dihydrochloride monohydrate] : what is it?
Output: 98.2

Task: Reported relative cell viability for Cc1c(OCC(F)(F)F)ccnc1C[S@@+]([O-])c1nc2ccccc2[nH]1 : what is it?
Output: 101

====

Tested on: HL-1
METHOD SUMMARY: relative cell viability (CellTiter-Glo) vs DMSO control (% of DMSO control); higher = more viable cells
EXPERIMENTAL SETUP: oxygen condition: normoxia 72 h; 1000 nM
Lab note: compare relative cell viability with 100, writing criterion met if less and criterion not met if equal or more.

Task: Check if relative cell viability falls below 100 for O=C(O)[C@H](CC(=O)N1C[C@H]2CCCC[C@H]2C1)Cc1ccccc1 [Mitiglinide calcium] .
Output: criterion not met

Task: Check if relative cell viability falls below 100 for CC(C)(C)CC(C)(C)c1ccc(OCCOCC[N+](C)(C)Cc2ccccc2)cc1 [Benzethonium chloride] .
Output: criterion met

Task: Check if relative cell viability falls below 100 for CCOC(=O)C1=C(C)NC(C)=C(C(=O)OCC)C1c1ccccc1/C=C/C(=O)OC(C)(C)C [Lacidipine] .
Output: criterion not met

Task: Check if relative cell viability falls below 100 for CC(C)OC(=O)C(C(=O)OC(C)C)=C1SC=CS1 [Malotilate] .
Output: criterion not met

====

Tested on: HL-1
METHOD SUMMARY: relative cell viability (CellTiter-Glo) vs DMSO control (% of DMSO control); higher = more viable cells
EXPERIMENTAL SETUP: oxygen condition: normoxia 72 h; 40 nM
Where a name gives a salt, the structure may show the parent alone.
Recorded relative cell viability values for a group of compounds are listed next.
Field format: numeric only.

Task: Checklist item: relative cell viability tested on HL-1, entry CC1CCc2c(N3CCC(O)CC3)c(F)cc3c(=O)c(C(=O)O)cn1c23 (stereo not given) [Nadifloxacin] , value?
Output: 104

Task: Checklist item: relative cell viability tested on HL-1, entry N[C@@H]1CCCCN(c2c(F)cc3c(=O)c(C(=O)O)cn(C4CC4)c3c2Cl)C1 [Besifloxacin HCl] , value?
Output: 101

Task: Checklist item: relative cell viability tested on HL-1, entry CC(C)(C)CC(C)(C)c1ccc(OCCOCC[N+](C)(C)Cc2ccccc2)cc1 [Benzethonium chloride] , value?
Output: 97.9

====

Test system: HL-1
METHOD SUMMARY: relative cell viability (CellTiter-Glo) vs DMSO control (% of DMSO control); higher = more viable cells
EXPERIMENTAL SETUP: oxygen condition: hypoxia 48 h (1% O2) + reoxygenation 24 h; 200 nM
Structures can show the parent of a compound that is named as a salt.
Recorded relative cell viability values for a group of compounds are listed next.

Recorded results for 8 compounds are shown here.
- CN1CC2c3ccccc3Oc3ccc(Cl)cc3C2C1 (stereo not drawn): 104
- CNCC[C@H](Oc1cccc2ccccc12)c1cccs1 [Duloxetine HCl]: 96
- Clc1ccc2nsnc2c1NC1=NCCN1 [Tizanidine HCl]: 106
- O=C1CN2Cc3c(ccc(Cl)c3Cl)N=C2N1 [Anagrelide HCl]: 98.7
- N[C@@H](CSCCCO)C(=O)O: 105
- CC/C(=C(\c1ccccc1)c1ccc(OCCN(C)C)cc1)c1ccccc1 [Tamoxifen Citrate]: 99.9
- NS(=O)(=O)c1cc2c(cc1C(F)(F)F)NC(Cc1ccccc1)NS2(=O)=O (stereo not drawn) [Bendroflumethiazide]: 98.4
- Nc1ccc(/N=N/c2ccccc2)c(N)n1 [Phenazopyridine HCl]: 98.3

Let us move to another entry and its relative cell viability.
Task: Reported relative cell viability for CNC(=O)c1cc(Oc2ccc(NC(=O)Nc3ccc(Cl)c(C(F)(F)F)c3)c(F)c2)ccn1 : what is it?
Output: 113

====

Test system: HL-1
METHOD SUMMARY: relative cell viability (CellTiter-Glo) vs DMSO control (% of DMSO control); higher = more viable cells
EXPERIMENTAL SETUP: oxygen condition: normoxia 72 h; 40 nM
Counter-ions that a name gives are not always drawn.
Lab note: compare relative cell viability with 100, writing Condition met if less and Condition not met if equal or more.

• NC(=O)c1ncn([C@@H]2O[C@H](CO)[C@@H](O)[C@H]2O)c1O = Condition not met

Next molecule, please.
Task: Check if relative cell viability falls below 100 for CCCCN1CCCCC1C(=O)Nc1c(C)cccc1C (stereo unspecified) [Bupivacaine hydrochloride] .
Output: Condition not met

====

Tested on: HL-1
METHOD SUMMARY: relative cell viability (CellTiter-Glo) vs DMSO control (% of DMSO control); higher = more viable cells
EXPERIMENTAL SETUP: oxygen condition: hypoxia 48 h (1% O2) + reoxygenation 24 h; 200 nM
Structures can show the parent of a compound that is named as a salt.
Recorded relative cell viability values for a group of molecules are listed next.
Field format: numeric only.

- CCOc1cc(CC(=O)N[C@@H](CC(C)C)c2ccccc2N2CCCCC2)ccc1C(=O)O [Repaglinide]: 97.2
- CN(C)CCC(c1ccc(Cl)cc1)c1ccccn1 (stereo not drawn) [Chlorpheniramine Maleate]: 101

Task: Reported relative cell viability for Cc1c(-c2ccccc2)oc2c(C(=O)OCCN3CCCCC3)cccc2c1=O [Flavoxate HCl] : what is it?
Output: 102

Task: Reported relative cell viability for CC[C@H]1OC(=O)[C@H](C)[C@@H](O[C@H]2C[C@@](C)(OC)[C@@H](O)[C@H](C)O2)[C@H](C)[C@@H](O[C@@H]2O[C@H](C)C[C@H](N(C)C)[C@H]2O)[C@](C)(O)C[C@@H](C)CN(C)[C@H](C)[C@@H](O)[C@]1(C)O [Azithromycin] : what is it?
Output: 103

Task: Reported relative cell viability for CCN(CC)CCOC(=O)C(c1ccccc1)c1ccccc1 [Adiphenine HCl] : what is it?
Output: 94.2

====

Recorded relative cell viability values for a group of compounds are listed next.
Tested on: HL-1
METHOD SUMMARY: relative cell viability (CellTiter-Glo) vs DMSO control (% of DMSO control); higher = more viable cells
EXPERIMENTAL SETUP: oxygen condition: normoxia 72 h; 200 nM
Structures can show the parent of a compound that is named as a salt.
Field format: numeric only.

• Cc1cc(C2CCCCC2)n(O)c(=O)c1 = 69.4

Task: Reported relative cell viability for CCC(NC(C)C)C(O)c1ccc(O)c(O)c1 (stereo not drawn) [Isoetharine Mesylate] : what is it?
Output: 107

Task: Reported relative cell viability for NCC(=O)CCC(=O)O [5-Aminolevulinic acid hydrochloride] : what is it?
Output: 102

====

System: HL-1
METHOD SUMMARY: relative cell viability (CellTiter-Glo) vs DMSO control (% of DMSO control); higher = more viable cells
EXPERIMENTAL SETUP: oxygen condition: hypoxia 48 h (1% O2) + reoxygenation 24 h; 5000 nM
Where a name gives a salt, the structure may show the parent alone.
QUANTITY KIND: relative cell viability
Field format: numeric only.

Recorded results for 3 compounds are shown here.
• NC12CC3CC(CC(C3)C1)C2 [Amantadine hydrochloride] = 32.7
• Clc1ccc(C(c2ccccc2Cl)C(Cl)Cl)cc1 (configuration not stated) = 102
• Nc1ccc(C(=O)O)c(O)c1 [Aminosalicylate sodium] = 108

Task: Reported relative cell viability for O=P(O)(O)C(Cl)(Cl)P(=O)(O)O [Clodronate Disodium] : what is it?
Output: 115

Task: Reported relative cell viability for CO[C@@H]1[C@@H](OC(N)=O)[C@@H](O)[C@H](Oc2ccc3c(O)c(NC(=O)c4ccc(O)c(CC=C(C)C)c4)c(=O)oc3c2C)OC1(C)C [Novobiocin sodium] : what is it?
Output: 110

Task: Reported relative cell viability for COC(=O)C1=C(C)NC(C)=C(C(=O)OC(C)C)C1c1cccc2nonc12 (configuration not stated) : what is it?
Output: 104

Task: Reported relative cell viability for C#C[C@]1(O)CC[C@H]2[C@@H]3CCc4cc(O)ccc4[C@H]3CC[C@@]21C : what is it?
Output: 107

====

Recorded relative cell viability values for a group of molecules are listed next.
System: HL-1
METHOD SUMMARY: relative cell viability (CellTiter-Glo) vs DMSO control (% of DMSO control); higher = more viable cells
EXPERIMENTAL SETUP: oxygen condition: normoxia 72 h; 1000 nM
Structures can show the parent of a compound that is named as a salt.
Field format: numeric only.

Task: Checklist item: relative cell viability tested on HL-1, entry COc1ccc2[nH]c([S+]([O-])Cc3ncc(C)c(OC)c3C)nc2c1 (centres undefined) , value?
Output: 103

Task: Checklist item: relative cell viability tested on HL-1, entry O=C(O)c1cccnc1 , value?
Output: 106

Task: Checklist item: relative cell viability tested on HL-1, entry CCOC(=O)[C@H](CCc1ccccc1)N[C@H]1CS[C@H](c2cccs2)CN(CC(=O)O)C1=O [Temocapril HCl] , value?
Output: 102

Task: Checklist item: relative cell viability tested on HL-1, entry CCOc1nc2cccc(C(=O)OCc3oc(=O)oc3C)c2n1Cc1ccc(-c2ccccc2-c2noc(=O)[nH]2)cc1 , value?
Output: 100

Task: Checklist item: relative cell viability tested on HL-1, entry CC1=NN(c2ccccc2)C(=O)C1 , value?
Output: 98.9

Task: Checklist item: relative cell viability tested on HL-1, entry CCCCCCCCOc1ccccc1C(=O)Nc1ccc(C(=O)OCC[N+](C)(CC)CC)cc1 [Otilonium Bromide] , value?
Output: 110

Task: Checklist item: relative cell viability tested on HL-1, entry CCC(C)(C)C(=O)O[C@H]1C[C@@H](C)C=C2C=C[C@H](C)[C@H](CC[C@@H]3C[C@@H](O)CC(=O)O3)[C@H]21 , value?
Output: 50.4

Task: Checklist item: relative cell viability tested on HL-1, entry O=C(CCCCCCC(=O)Nc1ccccc1)NO , value?
Output: 90.1

Task: Checklist item: relative cell viability tested on HL-1, entry CN(C)CCCN1c2ccccc2Sc2ccc(C(F)(F)F)cc21 [Triflupromazine HCl] , value?
Output: 101
